Details: in isobutanol, 308.15 K
quantityMeasured: solubility (mole fraction)
Keep it simple and answer with nothing but the number.

// query solubility (mole fraction) value for entry Nc1cccc2ccccc12
0.841

* * *

Conditions: in ethanol, 298.15 K
quantityMeasured: solubility (mole fraction)
Respond with the number and no other words.

Give the measured solubility (mole fraction) of Nc1cccc2ccccc12 .
0.555

* * *

Conditions: in ethyl acetate, 278.15 K
quantityMeasured: solubility (mole fraction)
Reply with just the number.

State the recorded solubility (mole fraction) for this entry: Nc1cccc2ccccc12
0.528

* * *

Details: in n-butanol, 278.15 K
quantityMeasured: solubility (mole fraction)
Would you mind answering with just the numeric figure?

What does the data say about its solubility (mole fraction)? Entry: Nc1cccc2ccccc12
0.145
